# measured target: T1, soluble CGRP receptor (extracellular domains of human CRLR and human RAMP1) (human, UniProt Q16602 23-133; O60894 26-117)
# T1 construct: the tag and the thrombin site are not described; also called soluble human CGRP receptor; CGRP receptor ECD
# T1 sequence (Q16602 23-133, chain 1 of 2): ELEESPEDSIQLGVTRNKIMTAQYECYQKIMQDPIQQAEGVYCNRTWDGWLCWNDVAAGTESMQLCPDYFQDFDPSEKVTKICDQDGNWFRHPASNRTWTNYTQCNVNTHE
# T1 sequence (O60894 26-117, chain 2 of 2): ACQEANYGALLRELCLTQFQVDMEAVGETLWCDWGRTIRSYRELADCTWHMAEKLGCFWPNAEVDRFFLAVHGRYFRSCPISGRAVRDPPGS
# protocol description: SPR (Biacore T200), antibody captured by goat anti-human Fc, soluble CGRP receptor as analyte, 1:1 model
So I've got a bunch of binders here, and I need their kon values.

Qu. Look up kon of wild-type 4E4 anti-CGRP receptor monoclonal antibody (antibody, human IgG2, lambda, V domains shown, also called WT; 4E4 Ab) VH: QVQLVESGGGVVQPGRSLRLSCAASGFTFSSFGMHWVRQAPGKGLEWVAVISFDGSIKYSVDSVKGRFTISRDNSKNTLFLQMNSLRAEDTAVYYCARDRLNYYDSSGYYHYKYYGMAVWGQGTTVTVSS VL: QSVLTQPPSVSAAPGQKVTISCSGSSSNIGNNYVSWYQQLPGTAPKLLIYDNNKRPSGIPDRFSGSKSGTSTTLGITGLQTGDEADYYCGTWDSRLSAVVFGGGTKLTVLG and report it.
Ans. 20000 M⁻¹ s⁻¹

Qu. Output measured kon for this item: 4E4 light chain Y33A single-point alanine variant antibody (antibody, V domains shown, Recombinantly expressed as a monoclonal antibody; also called L-Y33A) VH: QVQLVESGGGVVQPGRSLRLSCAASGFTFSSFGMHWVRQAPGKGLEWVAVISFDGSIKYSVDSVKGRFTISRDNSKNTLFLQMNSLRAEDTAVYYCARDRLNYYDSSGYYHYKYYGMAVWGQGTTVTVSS VL: QSVLTQPPSVSAAPGQKVTISCSGSSSNIGNNAVSWYQQLPGTAPKLLIYDNNKRPSGIPDRFSGSKSGTSTTLGITGLQTGDEADYYCGTWDSRLSAVVFGGGTKLTVLG
Ans. 24000 M⁻¹ s⁻¹

Qu. Indicate the recorded kon value for this binder: 4E4 heavy chain K113A single-point alanine variant antibody (antibody, V domains shown, Recombinantly expressed as a monoclonal antibody) VH: QVQLVESGGGVVQPGRSLRLSCAASGFTFSSFGMHWVRQAPGKGLEWVAVISFDGSIKYSVDSVKGRFTISRDNSKNTLFLQMNSLRAEDTAVYYCARDRLNYYDSSGYYHYAYYGMAVWGQGTTVTVSS VL: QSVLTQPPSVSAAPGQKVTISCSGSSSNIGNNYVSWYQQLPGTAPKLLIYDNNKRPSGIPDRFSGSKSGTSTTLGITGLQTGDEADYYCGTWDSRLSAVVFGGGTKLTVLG
Ans. 18000 M⁻¹ s⁻¹
